test system: 677734-321-R-J1-PDC complex spheroid viability; test: Anticancer human tumor 677734-321-R-J1-PDC patient-derived soft tissue sarcoma cell line growth inhibition [POLQ]; settings: second compound 0.0316 µM; first compound 0.0316 µM; hits give low values;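 also: spheroids exposed to compounds for one week; 100% = vehicle DMSO treated spheroids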
REPORTED_ENDPOINT: viability, T/C (%)
One number for each entry, in %.

| COMPOUND | viability, T/C (%) |
| --- | --- |
| C#Cc1c(F)ccc2cc(O)cc(-c3ncc4c(N5CC6CCC(C5)N6)nc(OCC56CCCN5CC(F)C6)nc4c3F)c12 (stereo not given) + Nc1ccc(C#CCN(C(=O)Cc2ncc(C(F)(F)F)cc2C(F)(F)F)c2ccc(F)cc2)nn1 | 104 |
| CCc1cc2c(N3CCc4c(cc(Cn5ccnc5)cc4-c4cn(C)nc4C(F)(F)F)C3=O)cc(C)nc2c(OC)n1 + COC1C(OC(N)=O)C(O)C(Oc2ccc3c(O)c(NC(=O)c4ccc(O)c(CC=C(C)C)c4)c(=O)oc3c2C)OC1(C)C | 111 |
| CCc1c2c(nc3ccc(O)cc13)-c1cc3c(c(=O)n1C2)COC(=O)[C@]3(O)CC + Cc1cccc(N(C)C(=O)C2C(O)CCN2c2nc(C)cc(C(F)(F)F)c2C#N)c1 | 5.31 |
| CC1COCCN1c1cc(-c2ccnn2C)c2ccnc(-c3ccn[nH]3)c2n1 (stereo not given) + Cc1cccc(N(C)C(=O)C2C(O)CCN2c2nc(C)cc(C(F)(F)F)c2C#N)c1 | 100 |
| COc1cc(C2c3cc4c(cc3C(OC3OC5COC(C)OC5C(O)C3O)C3COC(=O)C23)OCO4)cc(OC)c1O (stereo not given) + COC1C(OC(N)=O)C(O)C(Oc2ccc3c(O)c(NC(=O)c4ccc(O)c(CC=C(C)C)c4)c(=O)oc3c2C)OC1(C)C | 107 |

Below is a list of compounds. For each, state its recorded viability, T/C.
1. COc1cc2cc(C(=O)CCC(=O)O)sc2cc1OC + COC1C(OC(N)=O)C(O)C(Oc2ccc3c(O)c(NC(=O)c4ccc(O)c(CC=C(C)C)c4)c(=O)oc3c2C)OC1(C)C
2. COc1ccc([C@@H](O)c2cc(-c3ncnc4cc(N5CCOCC5)ccc34)c(F)cc2Cl)nn1 + Nc1ccc(C#CCN(C(=O)Cc2ncc(C(F)(F)F)cc2C(F)(F)F)c2ccc(F)cc2)nn1
3. COc1cc(C2c3cc4c(cc3C(OC3OC5COC(C)OC5C(O)C3O)C3COC(=O)C23)OCO4)cc(OC)c1O (stereo not given) + Nc1ccc(C#CCN(C(=O)Cc2ncc(C(F)(F)F)cc2C(F)(F)F)c2ccc(F)cc2)nn1
4. CC1COCCN1c1cc(C2(O)CC3CCC(C2)O3)c2cnn(-c3ccn[nH]3)c2n1 (stereo not given) + COC1C(OC(N)=O)C(O)C(Oc2ccc3c(O)c(NC(=O)c4ccc(O)c(CC=C(C)C)c4)c(=O)oc3c2C)OC1(C)C
5. CC(C)n1c(=O)n(C)c2cnc3cc(F)c(-c4ccc(OCCCN5CCCCC5)nc4)cc3c21 + Nc1ccc(C#CCN(C(=O)Cc2ncc(C(F)(F)F)cc2C(F)(F)F)c2ccc(F)cc2)nn1

1: 104; 2: 89.5; 3: 98.2; 4: 87.1; 5: 94

Taken from PubChem BioAssay AID1963842.
